SYSTEM: Mitogen-activated protein kinase 14 (Homo sapiens, UniProt Q16539)
Sequence (Q16539 whole entry): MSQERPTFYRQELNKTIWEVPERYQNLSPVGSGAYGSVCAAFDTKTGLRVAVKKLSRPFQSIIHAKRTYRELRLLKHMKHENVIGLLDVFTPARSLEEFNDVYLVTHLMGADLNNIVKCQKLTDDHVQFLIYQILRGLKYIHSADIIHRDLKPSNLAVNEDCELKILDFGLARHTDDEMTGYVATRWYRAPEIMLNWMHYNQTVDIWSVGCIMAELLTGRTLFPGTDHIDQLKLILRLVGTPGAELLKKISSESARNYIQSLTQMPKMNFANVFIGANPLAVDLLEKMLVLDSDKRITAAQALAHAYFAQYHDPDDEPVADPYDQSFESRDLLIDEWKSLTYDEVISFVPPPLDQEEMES
ASSAY: Inhibition of p38alpha by immunosorbent based assay
// reported IC50 per item
Answer format: numeric, nM implied, no suffix.

Check out these entries, answers already filled in.
CSc1nc(-c2ccc(F)cc2)c(-c2ccnc(NC(C)=O)c2)n1C1CCOCC1 :: 780
CSc1nc(-c2ccc(F)cc2)c(-c2ccnc(NC(C)=O)c2)n1CCC(=O)N1CCCCC1 :: 2240
CSc1nc(-c2ccc(F)cc2)c(-c2ccnc(NC(C)=O)c2)n1CCCCO :: 140
CCC(=O)Nc1cc(-c2c(-c3ccc(F)cc3)nc(SC)n2CCOC)ccn1 :: 180

Now for another entry.
Ask | Need IC50 of CSc1nc(-c2ccc(F)cc2)c(-c2ccnc(NC(C)=O)c2)n1CCCF , thanks.
Reply | 180

###

SYSTEM: Mitogen-activated protein kinase 14 (Homo sapiens)
ASSAY: Inhibition of p38alpha by immunosorbent based assay
# IC50 listing for each entry below
Note to self: number, then unit, no commentary.

The following molecules have reported results that may help.
CSc1nc(-c2ccc(F)cc2)c(-c2ccnc(NC(=O)Cc3ccc(Cl)cc3)c2)n1C :: 0.022 µM
CSc1nc(-c2ccc(F)cc2)c(-c2ccnc(NC(C)=O)c2)n1C1CCCCC1 :: 0.79 µM

Ask | Entry under review: CSc1nc(-c2ccc(F)cc2)c(-c2ccnc(NC(C)=O)c2)n1CCCI . Reported IC50?
Reply | 0.019 µM

Ask | // query: CCN(CC)C(=O)Cn1c(SC)nc(-c2ccc(F)cc2)c1-c1ccnc(NC(C)=O)c1
Reply | 0.06 µM

Ask | Consider next the molecule CSc1nc(-c2ccc(F)cc2)c(-c2ccnc(NC(C)=O)c2)n1CCCBr in the same way.
Reply | 0.027 µM

###

SYSTEM: Mitogen-activated protein kinase 14 (Homo sapiens, UniProt Q16539)
ASSAY: Inhibition of p38alpha by immunosorbent based assay
Some compounds, each annotated with its measured IC50.
Provide only the numeric value, understood in nM.

Recorded results for 4 compounds are shown here.
CSc1nc(-c2ccc(F)cc2)c(-c2ccnc(NC(=O)COc3ccc(Cl)cc3Cl)c2)[nH]1 :: 160
COCCn1c(SC)nc(-c2ccc(F)cc2)c1-c1ccnc(NC(C)=O)c1 :: 110
CSc1nc(-c2ccc(F)cc2)c(-c2ccnc(NC(C)=O)c2)n1CCO :: 110
CSc1nc(-c2ccc(F)cc2)c(-c2ccnc(NC(=O)C3CCCC3)c2)n1C :: 150

Ask | Look up IC50: CCn1c(SC)nc(-c2ccc(F)cc2)c1-c1ccnc(NC(=O)/C=C/c2c(Cl)cccc2Cl)c1
Reply | 100

###

SYSTEM: Mitogen-activated protein kinase 14 (Homo sapiens, UniProt Q16539)
ASSAY: Inhibition of p38alpha by immunosorbent based assay
yes (1) if IC50 is below 100 nM. no (0) if not; exact matches included in no (0).

Ask | Report whether reported IC50 is lower than 100 nM (strictly) for COc1ccc(/C=C/C(=O)Nc2cc(-c3c(-c4ccc(F)cc4)nc(SC)n3C)ccn2)cc1
Reply | yes (1)

Ask | Again, but for COc1ccc(/C=C/C(=O)Nc2cc(-c3[nH]c(SC)nc3-c3ccc(F)cc3)ccn2)cc1
Reply | yes (1)

Ask | Also, CSc1nc(-c2ccc(F)cc2)c(-c2ccnc(NC(=O)CCc3ccc(C(C)(C)C)cc3)c2)[nH]1 please.
Reply | no (0)

Ask | Now consider CSc1nc(-c2ccc(F)cc2)c(-c2ccnc(NC(=O)c3cc4ccccc4o3)c2)[nH]1 and answer again.
Reply | yes (1)

Ask | What about CSc1nc(-c2ccc(F)cc2)c(-c2ccnc(NC(C)=O)c2)n1CCCl ?
Reply | no (0)

Ask | Would you kindly repeat that for CSc1nc(-c2ccc(F)cc2)c(-c2ccnc(NC(=O)C(C)c3ccc(CC(C)C)cc3)c2)[nH]1 (stereo not given) ?
Reply | yes (1)

###

Reported IC50 values for a set of compounds
SYSTEM: Mitogen-activated protein kinase 14 (Homo sapiens, UniProt Q16539)
ASSAY: Inhibition of p38alpha by immunosorbent based assay
Field: numeric (µM). Do not append units.

The following compounds have reported results that may help.
CSc1nc(-c2ccc(F)cc2)c(-c2ccnc(NC(=O)c3ccc(-c4ccccc4)cc3)c2)[nH]1 :: 0.1
CSc1nc(-c2ccc(F)cc2)c(-c2ccnc(NC(=O)COc3cccc(Cl)c3Cl)c2)[nH]1 :: 0.16
C=CC(=O)Nc1cc(-c2c(-c3ccc(F)cc3)nc(SC)n2CCOC)ccn1 :: 0.17

Attention now shifts to the item below.
Ask | Report IC50 for COC(=O)CCn1c(SC)nc(-c2ccc(F)cc2)c1-c1ccnc(NC(C)=O)c1 please.
Reply | 0.33
